Form field: cell viability (one value per entry).
- System: KU-812
- test_protocol: cell viability (% survival relative to DMSO control, bortezomib = 0%); higher = less cytotoxic
- settings: 1 nM; 72 h
Write it as a number; the unit % goes unstated.

Recorded results for 3 molecules are shown here.
molecule="C1CCC(C(CC2CCCCN2)C2CCCCC2)CC1.O=C(O)/C=C\\C(=O)O (centres undefined)" reported_property="cell viability" readout_value=96.3
molecule=Nc1ccn([C@@H]2O[C@H](CO)[C@@H](O)[C@@H]2O)c(=O)n1 reported_property="cell viability" readout_value=97
molecule=CCN(CC)CCN(Cc1ccc(-c2ccc(C(F)(F)F)cc2)cc1)C(=O)Cn1c(SCc2ccc(F)cc2)nc(=O)c2c1CCC2 reported_property="cell viability" readout_value=110

// query Give its cell viability value. Item: Cc1ccc(S(=O)(=O)NC2c3ccccc3Oc3ccccc32)cc1
// result 93.7

====

Form field: cell viability (one value per entry).
- System: SHI-1
- test_protocol: cell viability (% survival relative to DMSO control, bortezomib = 0%); higher = less cytotoxic
- settings: 1 nM; 72 h
Write it as a number; the unit % goes unstated.

Recorded results for 3 compounds are shown here.
compound="O=C(O)CCc1ccc(NCc2cccc(Oc3ccccc3)c2)cc1 [GW9508]" reported_property="cell viability" readout_value=102
compound="CC(/C=C1\\SC(=S)N(CC(=O)O)C1=O)=C\\c1ccccc1 [Epalrestat]" reported_property="cell viability" readout_value=120
compound="CC(C)C[C@H](NC(=O)[C@@H](O)[C@H](N)Cc1ccccc1)C(=O)O [Ubenimex]" reported_property="cell viability" readout_value=99.4

// query Give its cell viability value. Item: COc1cc2c(NC3CCN(C)CC3)nc(N3CCCN(C)CC3)nc2cc1OCCCN(C)C [UNC0224]
// result 91.9

// query Here is the next compound: O=c1c2ccccc2[se]n1-c1ccccc1 [Ebselen]
// result 107

// query Here is the next compound: CCN(CC)CCN(Cc1ccc(-c2ccc(C(F)(F)F)cc2)cc1)C(=O)Cn1c(SCc2ccc(F)cc2)nc(=O)c2c1CCC2 [Darapladib]
// result 107

// query Here is the next compound: CCOC(=O)[C@H]1O[C@@H]1C(=O)N[C@@H](CC(C)C)C(=O)NCCC(C)C [Aloxistatin]
// result 102

// query Here is the next compound: CC(Cc1ccc(O)c(O)c1)C(C)Cc1ccc(O)c(O)c1 (centres undefined) [Masoprocol]
// result 97.1

// query Here is the next compound: [N-]=[N+]=CC(=O)CC[C@H](N)C(=O)O [6-Diazo-5-oxo-L-norleucine]
// result 110

====

- System: KCL-22
- test_protocol: cell viability (% survival relative to DMSO control, bortezomib = 0%); higher = less cytotoxic
- settings: 1 nM; 72 h
reported_property: cell viability (%)
Write it as a number; the unit % goes unstated.

// query Give its cell viability value. Item: CC12CCC(O)CC1CCC1C2CCC2(C)C(C3=CC(=O)OC3)CCC12O (configuration not stated)
// result 94.5

====

Form field: cell viability (one value per entry).
- Tested on: HL-60
- test_protocol: cell viability (% survival relative to DMSO control); higher = less cytotoxic
- settings: 0.1 µM; 72 h; co-treatment: GSK2194069 100 nM
Write it as a number; the unit % goes unstated.

Recorded results for 3 compounds are shown here.
molecule_smiles=O=C(COc1ccc(C(=O)c2ccccc2)cc1)NC1CCN(Cc2ccccc2)CC1 reported_property="cell viability" readout_value=101
molecule_smiles=C1CCc2nnc(C34CC5CC(CC(C5)C3)C4)n2CC1 reported_property="cell viability" readout_value=99.8
molecule_smiles=Cc1coc2c1C(=O)C(=O)c1c-2ccc2c(C)cccc12 reported_property="cell viability" readout_value=108

Alright, here's another compound for you.
// query Give its cell viability value. Item: CCOc1ccc(Cc2cc([C@@H]3O[C@H](CO)[C@@H](O)[C@H](O)[C@H]3O)ccc2Cl)cc1
// result 100

====

Form field: cell viability (one value per entry).
- System: KU-812
- test_protocol: cell viability (% survival relative to DMSO control, bortezomib = 0%); higher = less cytotoxic
- settings: 10000 nM; 72 h
Write it as a number; the unit % goes unstated.

Recorded results for 4 molecules are shown here.
molecule="Cc1coc2c1C(=O)C(=O)c1c-2ccc2c(C)cccc12 [Tanshinone I]" readout_value=89.2
molecule="OCCN1CCN(CCCN2c3ccccc3Sc3ccc(Cl)cc32)CC1 [Perphenazine]" readout_value=30
molecule="CC(C(=O)O)C(=O)O [Methylmalonate]" readout_value=85.6
molecule="Cc1noc2c1-c1ccccc1C(c1ccc(Cl)cc1)=N[C@H]2CC(N)=O [CPI-0610]" readout_value=4.66

// query Which measured cell viability belongs to C#Cc1cnc(O)nc1O [Eniluracil] , tested on KU-812?
// result 89.7

// query Here is the next molecule: Clc1ccc2c(c1Cl)CNCC2
// result 87.8

// query Here is the next molecule: C1CCc2nnc(C34CC5CC(CC(C5)C3)C4)n2CC1 [MERCK-544]
// result 97.9

// query Here is the next molecule: O=C(O)c1nn(Cc2ccc(Cl)cc2Cl)c2ccccc12 [Lonidamine]
// result 88.8

// query Here is the next molecule: O=C(O)c1cc2sccc2[nH]1 [4H-thieno[3,2-b]pyrrole-5-carboxylic acid]
// result 108

// query Here is the next molecule: O=C(COc1ccc(C(=O)c2ccccc2)cc1)NC1CCN(Cc2ccccc2)CC1 [AdipoRon]
// result 41.5

====

- System: myeloid leukemia patient primary cells Pat.9
- test_protocol: cell viability (% survival relative to DMSO control); higher = less cytotoxic
- settings: 10 nM; 72 h
Form field: cell viability (one value per entry).
Write it as a number; the unit % goes unstated.

Recorded results for 3 compounds are shown here.
compound="CC12CCC(O)CC1CCC1C2CCC2(C)C(C3=CC(=O)OC3)CCC12O (centres undefined) [Digitoxigenin]" reported_property="cell viability" readout_value=54.7
compound="COc1c(C)c2c(c(O)c1C/C=C(\\C)CCC(=O)O)C(=O)OC2 [Mycophenolic acid]" reported_property="cell viability" readout_value=63.2
compound="Cc1noc2c1-c1ccccc1C(c1ccc(Cl)cc1)=N[C@H]2CC(N)=O [CPI-0610]" reported_property="cell viability" readout_value=24.2

// query Give its cell viability value. Item: CC(Cc1ccc(O)c(O)c1)C(C)Cc1ccc(O)c(O)c1 (centres undefined) [Masoprocol]
// result 87.1

====

- Tested on: K-562
- test_protocol: cell viability (% survival relative to DMSO control, bortezomib = 0%); higher = less cytotoxic
- settings: 1000 nM; 72 h
reported_property: cell viability
Field note: include the unit after the figure.

// query Give its cell viability value. Item: Clc1ccc(COC(Cn2ccnc2)c2ccc(Cl)cc2Cl)cc1 (stereo unspecified)
// result 69%

// query Here is the next compound: Nc1ncnc2c1ncn2[C@@H]1O[C@H](CSCC[C@H](N)C(=O)O)[C@@H](O)[C@H]1O
// result 104%

// query Here is the next compound: O=C(O)c1nn(Cc2ccc(Cl)cc2Cl)c2ccccc12
// result 98.4%

// query Here is the next compound: Cc1noc2c1-c1ccccc1C(c1ccc(Cl)cc1)=N[C@H]2CC(N)=O
// result 32.1%

// query Here is the next compound: Oc1cc(Cl)ccc1Oc1ccc(Cl)cc1Cl
// result 106%

// query Here is the next compound: CC(Cc1ccc(O)c(O)c1)C(C)Cc1ccc(O)c(O)c1 (stereo unspecified)
// result 95.8%

====

- System: ML-2
- test_protocol: cell viability (% survival relative to DMSO control, bortezomib = 0%); higher = less cytotoxic
- settings: 10 nM; 72 h
Form field: cell viability (one value per entry).
Write it as a number; the unit % goes unstated.

Recorded results for 2 compounds are shown here.
molecule_smiles=C=CCc1ccc2c(c1O)C(=O)c1ccccc1C2=O measurement_target=ML-2 reported_property="cell viability" readout_value=99.2
molecule_smiles=Cc1coc2c1C(=O)C(=O)c1c-2ccc2c(C)cccc12 measurement_target=ML-2 reported_property="cell viability" readout_value=114

// query Give its cell viability value. Item: Nc1ncnc2c1ncn2[C@@H]1O[C@H](CSCC[C@H](N)C(=O)O)[C@@H](O)[C@H]1O
// result 102

// query Here is the next compound: COc1cc2c(NC3CCN(C)CC3)nc(N3CCCN(C)CC3)nc2cc1OCCCN(C)C
// result 111

====

Form field: cell viability (one value per entry).
- Tested on: KCL-22
- test_protocol: cell viability (% survival relative to DMSO control, bortezomib = 0%); higher = less cytotoxic
- settings: 10 nM; 72 h
Write it as a number; the unit % goes unstated.

Recorded results for 7 molecules are shown here.
molecule="Nc1ncnc2c1ncn2[C@@H]1O[C@H](CSCC[C@H](N)C(=O)O)[C@@H](O)[C@H]1O [S-Adenosyl Homocysteine]" reported_property="cell viability" readout_value=113
molecule="Oc1cc(Cl)ccc1Oc1ccc(Cl)cc1Cl [Triclosan]" reported_property="cell viability" readout_value=98.3
molecule="CCOC(=O)N1c2ccc(C(F)(F)F)cc2[C@@H](N(Cc2cc(C(F)(F)F)cc(C(F)(F)F)c2)C(=O)OC)C[C@H]1CC [Torcetrapib]" reported_property="cell viability" readout_value=107
molecule="OCCN1CCN(CCCN2c3ccccc3Sc3ccc(Cl)cc32)CC1 [Perphenazine]" reported_property="cell viability" readout_value=107
molecule=Clc1ccc2c(c1Cl)CNCC2 reported_property="cell viability" readout_value=120
molecule="Cl.OC[C@H]1NC[C@@H](O)[C@@H](O)[C@@H]1O [1-Deoxymannojirimycin hydrochloride]" reported_property="cell viability" readout_value=86.8
molecule="O=C(O)CCc1ccc(NCc2cccc(Oc3ccccc3)c2)cc1 [GW9508]" reported_property="cell viability" readout_value=89.5

Alright, here's another molecule for you.
// query Which measured cell viability belongs to CC12CCC(O)CC1CCC1C2CCC2(C)C(C3=CC(=O)OC3)CCC12O (stereo not drawn) [Digitoxigenin] , tested on KCL-22?
// result 102
